Target: T1, hANGPTL3(17-460)-His (human, UniProt Q9Y5C1 17-460)
T1 construct: Bought protein (R&D Systems); also called full-length mature human ANGPTL3 with a C-terminal decahistidine tag; Human ANGPTL3 (17-460)-His
T1 sequence: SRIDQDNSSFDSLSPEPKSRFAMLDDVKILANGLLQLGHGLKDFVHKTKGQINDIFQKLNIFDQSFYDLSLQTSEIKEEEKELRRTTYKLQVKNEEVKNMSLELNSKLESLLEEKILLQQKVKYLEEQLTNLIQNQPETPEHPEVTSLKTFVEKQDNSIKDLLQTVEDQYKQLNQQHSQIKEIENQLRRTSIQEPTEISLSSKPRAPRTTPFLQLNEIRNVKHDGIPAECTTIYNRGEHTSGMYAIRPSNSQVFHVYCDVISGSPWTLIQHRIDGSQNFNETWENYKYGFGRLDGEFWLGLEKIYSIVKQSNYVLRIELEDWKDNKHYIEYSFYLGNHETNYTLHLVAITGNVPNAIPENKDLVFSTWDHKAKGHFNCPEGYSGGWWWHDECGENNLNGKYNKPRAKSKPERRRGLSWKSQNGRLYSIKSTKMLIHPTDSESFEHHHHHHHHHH
Experiment: SPR Biacore, antigen captured, 25C, pH 7.4, HBS-EP
PARAMETER_MEASURED: koff (s⁻¹)
Give the value, in units of s⁻¹, as a plain number.

Observe how each entry below is paired with its result.
- H4H1282P (antibody, IgG4, V domains shown) VH: EVQLVQSGGGVVQPGRSLRLSCAASGFTFSNYGMHWVRQAPGKGLEWVAVVWYDGDNKYYADSVKGRFTISRDNSKNTLYLQMNSLRAEDTAVYYCARDIITSRPTLDYWGQGTLVTVSS VL: DIQLTQSPSFLSASVGDRVTITCWASQGINSYLAWYQQKPGKAPKLLIYPASTLQSGVPSRFSGSGSGTEFTLTISSLQPVDFATYYCQQLNSYPLTFGGGTKVEIKR: 9.26e-05
- H4H1250P (antibody, IgG4, V domains shown) VH: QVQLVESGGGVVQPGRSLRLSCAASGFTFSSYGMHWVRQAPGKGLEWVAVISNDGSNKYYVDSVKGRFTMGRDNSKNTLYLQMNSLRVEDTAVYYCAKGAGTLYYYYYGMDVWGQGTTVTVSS VL: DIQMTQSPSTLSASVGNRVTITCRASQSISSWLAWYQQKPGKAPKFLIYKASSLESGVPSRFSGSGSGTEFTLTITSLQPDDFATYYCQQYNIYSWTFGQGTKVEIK: 0.000657
- H4H1263S (antibody, IgG4, V domains shown) VH: QVQLVQSGGGVVQPGRSLRLSCAASGFTFSTYGMHWVRQAPGKGLEWMAVISFDRGNKYYADSVKGRFTISRDNSKNTLYLQMNSLRAEDTAVYYCAKGGGSGTFYYYYGMDVWGQGTTVTVSS VL: DIQMTQSPSSVSASVGNRVTITCRASQGISSWLAWYHQKPGKVPKVLIYAASSLQSGVPSRFSGSGSGTDFTLTISSLQPEDFATYYCQQANSFPFTFGPGTKVEIKR: 0.00126

Query: Reported koff for H4H1292P (antibody, IgG4, V domains shown) VH: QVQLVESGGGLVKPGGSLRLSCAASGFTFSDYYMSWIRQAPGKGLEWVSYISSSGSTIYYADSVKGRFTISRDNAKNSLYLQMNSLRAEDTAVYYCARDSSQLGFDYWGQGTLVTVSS VL: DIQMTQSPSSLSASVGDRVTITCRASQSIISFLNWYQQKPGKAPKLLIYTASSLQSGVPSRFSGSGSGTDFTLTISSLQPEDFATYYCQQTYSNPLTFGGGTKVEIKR : what is it?
Response: 0.000248

Query: Lookup H4H1268S (antibody, IgG4, V domains shown) VH: QVQLQQSGPGLVKPSQTLSLTCAISGDSVSSNSPAWNWIRQSPSRGLEWLGRTYYRSKWYNDYAVSVRGRITINPDTSNNQFSLHLNSVTPEDTAMYYCARDKGLTARPTYFDYWGQGTLVTVSS VL: DIQMTQSPSTLSASVGDRVTITCRASQSINYWLAWYQQKPGKAPKPLIYKASSLESGVPSRFSGSGSGTEFTLTISSLQPDDFTTYYCQQYNSYSPTFGQGTKLEIKR
Response: 0.00189

Query: Lookup H4H1248P (antibody, IgG4, V domains shown) VH: QVQLVESGGGVVQPGRSLRLSCAASGFTFSSYGMHWVRQAPGKGLEWVAVISYDGSNKYYADSVKGRFTISRDNSKNTLYLQMNSLRAEDTAVYYCAKVGATTFYYYYGMDVWGQGTTVTVSS VL: DIQMTQSPSSVSAFVGDRVTITCRASQGISSWLAWYQQKPGKAPKLLIYAASSLQSGVPSRFSGSGSGTDFTLTISSLQPEDFATYYCQKANSFPFTFGPGTKVEIK
Response: 0.00247

Query: Lookup H4H1296P (antibody, IgG4, V domains shown) VH: QVQLVESGGVSVKPGGSLRLSCAASGFTFSDYYMSWIRQAPGKGLEWVSYIGSSGTNDYYADSVKGRFTISRDNAKNSLYLQMDSLRAEDTAVYYCARDSSQMGFDYWGQGTLVTVSS VL: DIQMTQSPSSLSASVGDRVTITCRASQNIINFLNWYQQRPGKAPQLLIYVAASLQSGVPSRFTGSGYGTDFTLTISSLQPEDFATYYCQQTYTNPLTFGGGTKVEIKR
Response: 4.12e-05

Query: Lookup H4H1279P (antibody, IgG4, V domains shown) VH: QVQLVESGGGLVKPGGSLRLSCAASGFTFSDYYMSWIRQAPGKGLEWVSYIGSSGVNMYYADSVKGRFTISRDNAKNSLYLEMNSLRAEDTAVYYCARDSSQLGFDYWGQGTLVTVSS VL: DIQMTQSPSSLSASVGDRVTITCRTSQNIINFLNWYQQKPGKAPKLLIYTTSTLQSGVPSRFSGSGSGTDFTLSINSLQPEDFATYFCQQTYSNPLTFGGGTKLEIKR
Response: 0.000114
